Sourced from patent US20210079087A1

This listing pairs binders with measured koff.
# assayed.target: T1, human IL-17A (human, UniProt Q16552 24-155)
# T1 construct: The immunogen was IL-17A protein, R&D Systems Cat #3012; also called Interleukin-17A; Hu IL-17
# T1 sequence (Q16552 24-155 limits assumed): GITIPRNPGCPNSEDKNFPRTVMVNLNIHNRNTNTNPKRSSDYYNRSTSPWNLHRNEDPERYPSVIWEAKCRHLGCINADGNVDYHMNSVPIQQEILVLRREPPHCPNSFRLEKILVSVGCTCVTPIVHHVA
# protocol.summary: SPR, Biacore 8k; antibody amine-coupled to the chip, IL-17A as analyte
observable: koff (s⁻¹)

- binder: "REMD 155 (antibody, human IgG4 S228P, kappa, V domains shown, Humanized antibody derived from 23A4D8; also called IgG 1 (H1/L1); H1 + L1) VH: QVQLVQSGAEVKKPGASVKVSCKASGFTFTDYYMNWVRQAPGQGLEWMGDINPKNGGTIFNQNFRGRVTMTRDTSISTAYMELSRLRSDDTAVYYCARSILTGPFYFDYWGQGTLVTVSS VL: DIVMTQSPDSLAVSLGERATINCKASQSVSFAGTGLMHWYQQKPGQPPKLLIYRASNLEAGVPDRFSGSGSGTDFTLTISSLQAEDVAVYYCQQTMEYPTFGGGTKLEIKR"
  scale.unit: "s⁻¹"
  relational.operator: "="
  result.number: "1.35e-05"
- binder: "REMD 155.2 (antibody, human IgG4 S228P, kappa, V domains shown, Humanized antibody derived from 23A4D8; also called IgG 4 (H1/L4); H1 + L4) VH: QVQLVQSGAEVKKPGASVKVSCKASGFTFTDYYMNWVRQAPGQGLEWMGDINPKNGGTIFNQNFRGRVTMTRDTSISTAYMELSRLRSDDTAVYYCARSILTGPFYFDYWGQGTLVTVSS VL: DIVLTQSPDSLAVSLGERATINCKASQSVSFAGTGLMHWYQQKPGQQPKLLIYRASNLEAGVPDRFSGSGSGTDFTLTISSVQAEDVAVYYCQQTMEYPTFGGGTKLEIKR"
  scale.unit: "s⁻¹"
  relational.operator: "≤"
  result.number: "1e-05"
- binder: "REMD 155.1 (antibody, human IgG4 S228P, kappa, V domains shown, Humanized antibody derived from 23A4D8; also called IgG 2 (H1/L2); H1 + L2) VH: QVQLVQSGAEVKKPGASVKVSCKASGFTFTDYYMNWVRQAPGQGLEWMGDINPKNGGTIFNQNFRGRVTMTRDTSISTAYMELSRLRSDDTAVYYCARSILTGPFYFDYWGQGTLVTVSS VL: DIVMTQSPDSLAVSLGERATINCKASQSVSFAGTGLMHWYQQKPGQQPKLLIYRASNLEAGVPDRFSGSGSGTDFTLTISSLQAEDVAVYYCQQTMEYPTFGGGTKLEIKR"
  scale.unit: "s⁻¹"
  relational.operator: "≤"
  result.number: "1e-05"
- binder: "23A4D8 (antibody, mouse IgG2a, V domains shown, also called Murine 23A4D8; parental) VH: EVQLQQSGPELVKPGASVKISCKASGFTFTDYYMNWMKQSHGKSLEWIGDINPKNGGTIFNQNFRGKATLTVDKSSSTAYMELRSLTSEDSAVYYCARSILTGPFYFDYWGQGTTLTVSS VL: DIVLTQSPASLAVSLGQRAIISCKASQSVSFAGTGLMHWYQQKSGQQPKLLISRASNLEAGVPTRFSGSGSRTDFTLNIHPVEEDDAATYYCQQTMEYPTFGGGTKLEIK"
  scale.unit: "s⁻¹"
  relational.operator: "="
  result.number: "1.22e-05"
